Published IC50 for human mPGES-1 (Homo sapiens, UniProt O14684), assembled from different documents, is shown next.
recordedMetric: IC50 (µM)

molecule | recordedMetric | result
NS(=O)(=O)c1c(F)cccc1NS(=O)(=O)/C=C/c1ccc(Cl)c(Cl)c1 | IC50 | 0.077
NS(=O)(=O)c1ccccc1S(=O)(=O)NC(=O)c1c(F)cc(-c2cc3ccccc3o2)cc1F | IC50 | 0.57
CC(C)C#Cc1ccc(C(=O)NS(=O)(=O)c2ccccc2S(N)(=O)=O)cc1OCCC(F)F | IC50 | 0.031
Cc1ccccc1C#Cc1ccc(C(=O)NS(=O)(=O)c2ccccc2S(N)(=O)=O)cc1 | IC50 | 0.0064
NS(=O)(=O)c1c(F)cc(F)cc1NS(=O)(=O)CCc1ccc(Cl)c(Cl)c1 | IC50 | 0.64
CC(=O)c1ccc(Cl)c(-c2nc(O)nc(-c3ccc(C(F)(F)F)cc3)n2)c1 | IC50 | 0.397
CCC(C)(O)C#Cc1ccc(C(=O)NS(=O)(=O)c2ccccc2S(N)(=O)=O)cc1 (centres unmarked) | IC50 | 8.8
NS(=O)(=O)c1ccc(F)cc1NS(=O)(=O)/C=C/c1ccc(Cl)c(Cl)c1 | IC50 | 0.27
